Biological target: human TLR9 (Homo sapiens, UniProt Q9NR96)
Sequence (Q9NR96 26-1032): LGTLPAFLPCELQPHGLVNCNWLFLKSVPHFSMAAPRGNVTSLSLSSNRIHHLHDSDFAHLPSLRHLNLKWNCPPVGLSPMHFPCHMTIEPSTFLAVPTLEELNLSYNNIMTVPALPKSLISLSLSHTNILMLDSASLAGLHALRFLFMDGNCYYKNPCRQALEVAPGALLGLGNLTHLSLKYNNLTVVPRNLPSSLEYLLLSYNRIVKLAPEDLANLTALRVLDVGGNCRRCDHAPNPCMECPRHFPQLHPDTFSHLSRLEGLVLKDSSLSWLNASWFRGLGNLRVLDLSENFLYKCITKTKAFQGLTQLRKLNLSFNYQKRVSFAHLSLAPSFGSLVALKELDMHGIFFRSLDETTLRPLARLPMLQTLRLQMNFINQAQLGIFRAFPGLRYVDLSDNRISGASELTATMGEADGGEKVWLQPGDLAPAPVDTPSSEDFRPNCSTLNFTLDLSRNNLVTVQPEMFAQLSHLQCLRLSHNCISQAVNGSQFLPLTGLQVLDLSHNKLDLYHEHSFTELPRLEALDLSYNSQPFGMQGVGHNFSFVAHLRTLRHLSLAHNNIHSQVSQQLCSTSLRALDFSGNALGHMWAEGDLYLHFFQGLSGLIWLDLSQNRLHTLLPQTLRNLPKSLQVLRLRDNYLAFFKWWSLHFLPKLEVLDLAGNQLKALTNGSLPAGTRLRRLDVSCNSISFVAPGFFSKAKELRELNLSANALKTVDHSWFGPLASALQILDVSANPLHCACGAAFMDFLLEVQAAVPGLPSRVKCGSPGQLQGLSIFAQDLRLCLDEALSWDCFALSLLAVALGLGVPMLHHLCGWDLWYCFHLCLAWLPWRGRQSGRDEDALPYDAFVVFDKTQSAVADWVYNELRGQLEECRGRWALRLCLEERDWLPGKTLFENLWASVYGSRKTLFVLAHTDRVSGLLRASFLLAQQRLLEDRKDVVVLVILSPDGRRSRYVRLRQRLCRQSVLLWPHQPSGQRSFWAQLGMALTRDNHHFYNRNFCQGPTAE
Experiment: TLR9 inhibition reporter assay (HEK-Blue cells, SEAP reporter)
Settings: HEK-Blue cells overexpressing human TLR9; stimulated with ODN2006 5 nM; SEAP read after 22 hour; dose range 0.05 nM-50 μM
Description: HEK-Blue™-cells (Invivogen) overexpressing human TLR7, TLR8 or TLR9 receptors were used for screening inhibitors of these receptors using an inducible SEAP (secreted embryonic alkaline phosphatase) reporter gene under the control of the IFN-β minimal promoter fused to five NF-κB and AP-1-binding sites. […] The percent inhibition is determined as the % reduction in the HEK-Blue signal present in wells treated with agonist plus DMSO alone compared to wells treated with a known inhibitor.
experimental-readout: IC50

>  <smiles-record>
CCn1c(=O)c(-c2ccc(S(C)(=O)=O)cc2)cc2cc(-c3ccc(C4CCN(C(C)C)CC4)cc3)ccc21

>  <experimental-readout>
IC50

>  <test-result>
287 nM

$$$$
>  <smiles-record>
CC(C)N1CCN(c2ccc(-c3ccc4[nH]c(=O)c(-c5cccc(F)c5F)cc4c3)cc2)CC1

>  <experimental-readout>
IC50

>  <test-result>
224 nM

$$$$
>  <smiles-record>
CC(C)N1CCC(c2ccc(-c3ccc4c(c3)cc(-c3ccc(N(C)S(C)(=O)=O)cc3)c(=O)n4C)cc2)CC1

>  <experimental-readout>
IC50

>  <test-result>
237 nM

$$$$
>  <smiles-record>
CC(C)N1CCN(c2ccc(-c3ccc4[nH]c(=O)c(-c5cc(F)c(F)cc5F)cc4c3)cc2)CC1

>  <experimental-readout>
IC50

>  <test-result>
118 nM

$$$$
>  <smiles-record>
CC(C)N1CCN(c2ccc(-c3ccc4[nH]c(=O)c(-c5cncnc5)cc4c3)cc2)CC1

>  <experimental-readout>
IC50

>  <test-result>
307 nM

$$$$
>  <smiles-record>
CCc1c(-c2ccc(OC)c(OC)c2)c(=O)[nH]c2ccc(C3CCN(C4CCN(C(C)C)CC4)CC3)cc12

>  <experimental-readout>
IC50

>  <test-result>
27 nM

$$$$
>  <smiles-record>
CC(C)N1CCN(c2ccc(-c3ccc4[nH]c(=O)c(-c5ccc(C(=O)O)cc5)cc4c3)cc2)CC1

>  <experimental-readout>
IC50

>  <test-result>
1760 nM

$$$$
>  <smiles-record>
CC(C)N1CCC(c2ccc(-c3ccc4[nH]c(=O)c(-c5ccc6nccnc6c5)cc4c3)cc2)CC1

>  <experimental-readout>
IC50

>  <test-result>
651 nM

$$$$
>  <smiles-record>
CN1CCC(c2ccc(-c3ccc4[nH]c(=O)c(-c5ccc(NS(C)(=O)=O)cc5)cc4c3)cc2)CC1

>  <experimental-readout>
IC50

>  <test-result>
78 nM

$$$$
>  <smiles-record>
CC(C)N1CCN(c2ccc(Nc3ccc4[nH]c(=O)c(-c5ccc(S(C)(=O)=O)cc5)cc4c3)cc2)CC1

>  <experimental-readout>
IC50

>  <test-result>
493 nM

$$$$
>  <smiles-record>
NS(=O)(=O)c1ccc(-c2cc3cc(-c4ccc(C5CCN(C6COC6)CC5)cc4)ccc3[nH]c2=O)cc1

>  <experimental-readout>
IC50

>  <test-result>
560 nM

$$$$
>  <smiles-record>
CC(C)N1CCN(c2ccc(-c3ccc4[nH]c(=O)c(-c5ccc(C(=O)N(C)C6COC6)cc5)cc4c3)cc2)CC1

>  <experimental-readout>
IC50

>  <test-result>
122 nM

$$$$
>  <smiles-record>
CC(C)N1CCN(c2ccc(-c3ccc4[nH]c(=O)c(-c5ccc(OC(F)F)cc5)cc4c3)cc2)CC1

>  <experimental-readout>
IC50

>  <test-result>
344 nM

$$$$
>  <smiles-record>
CC(C)N1CCN(c2ccc(-c3ccc4[nH]c(=O)c(-c5cccnc5)cc4c3)cc2)CC1

>  <experimental-readout>
IC50

>  <test-result>
293 nM

$$$$
>  <smiles-record>
Cc1ccccc1-c1cc2cc(-c3ccc(N4CCN(C(C)C)CC4)cc3)ccc2[nH]c1=O

>  <experimental-readout>
IC50

>  <test-result>
226 nM

$$$$
